Catalogue of compounds with associated pIC50
- experimental-target: NMDA receptor
- assay-overview: Competitive radioligand binding at NMDA receptor ([3H] MK801), rat forebrain membranes
- experimental-conditions: 0.2 nM [3H] MK801, reflects free base activity
pIC50: −log10 of the molar value.

compound | experimental-target | pIC50
COCCOc1cc(O)cc2c1C[C@@H]1[C@@H]3CCCC[C@]23CCN1C | NMDA receptor | < 5.00
CN1CC[C@]23CCCC[C@H]2[C@H]1Cc1ccc(Nc2cccnc2)cc13 | NMDA receptor | 7.00 to 10.00
CN1CC[C@]23CCCC[C@H]2[C@H]1Cc1ccc(Nc2nccs2)cc13 | NMDA receptor | 6.00 to 7.00

Param item: COCCOCCOCCO[C@H]1CC[C@H]2[C@H]3Cc4ccc(OC)cc4[C@@]2(CCN3C)C1 ; param system: NMDA receptor; output pIC50: < 5.00

Param item: CN1CC[C@]23CCCC[C@H]2[C@H]1Cc1cc2sc(N)nc2cc13 ; param system: NMDA receptor; output pIC50: 7.00 to 10.00

Param item: COCCNc1ccc2c(c1)[C@@]13CCCC[C@H]1[C@@H](C2)N(C)CC3 ; param system: NMDA receptor; output pIC50: 5.00 to 6.00

Param item: COCCOCCN1CC[C@]23CCCC[C@H]2[C@H]1Cc1ccc(-c2ccoc2)cc13 ; param system: NMDA receptor; output pIC50: < 5.00

Param item: CN1CC[C@]23CCCC[C@H]2[C@H]1Cc1cc2sc(NC(=N)N)nc2cc13 ; param system: NMDA receptor; output pIC50: 5.00 to 6.00

Param item: COCCOCCNC(=O)c1ccc2c(c1)[C@@]13CCCC[C@H]1[C@@H](C2)N(C)CC3 ; param system: NMDA receptor; output pIC50: < 5.00

Param item: COCCOCCn1cc(-c2ccc3c(c2)C24CCCCC2C(C3)N(C)CC4)cn1 (stereo not shown) ; param system: NMDA receptor; output pIC50: < 5.00

Param item: Oc1ccc2c(c1)[C@@]13CCCC[C@H]1[C@@H](C2)N(CC1COC1)CC3 ; param system: NMDA receptor; output pIC50: 5.00 to 6.00

Param item: COCCOCCOCCOCCOCCCC(=O)Nc1nc2cc3c(cc2s1)C[C@@H]1[C@@H]2CCCC[C@]32CCN1C ; param system: NMDA receptor; output pIC50: 5.00 to 6.00

Param item: CN1CC[C@]23CCCC[C@H]2[C@H]1Cc1cc2nnc(N)nc2cc13 ; param system: NMDA receptor; output pIC50: 5.00 to 6.00

Param item: COCCOCCOCCOCCOCCOCCNc1nc2cc3c(cc2s1)C[C@@H]1[C@@H]2CCCC[C@]32CCN1C ; param system: NMDA receptor; output pIC50: < 5.00

Param item: COCCOCCOc1ccc(Nc2ccc3c(c2)[C@@]24CCCC[C@H]2[C@@H](C3)N(C)CC4)cc1 ; param system: NMDA receptor; output pIC50: 5.00 to 6.00

Param item: COCCOc1cc2c(cc1O)[C@@]13CCCCC1[C@@H](C2)N(C)CC3 (stereo partly shown) ; param system: NMDA receptor; output pIC50: 5.00 to 6.00
